- TEST DETAILS: chemical genetic growth profiling, strain panel (AID 1159580);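 further: tested at 20 µM; growth read once vehicle control cultures reached saturation at 30 °C; 1 = growth at the plate median or of vehicle wells; lower values mean less growth of the strain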
- CONDITION SUMMARY: S. cerevisiae deletion strains, growth OD, locus YER133W, strain GLC7, stronger effect = lower value
About 2,000 (36%) of roughly 5,500 compounds were called active. About 18% were inconclusive and are not listed. This is one part of the list.
PROPERTY LABEL: normalized growth
Lab note: jot the number down without any unit.

Here is how some compounds turned out for normalized growth.
{"COMPOUND SMILES": "COc1ccc(C(=O)CSC2=NCCc3ccccc32)cc1", "RESULT NUMBER": 1.01}
{"COMPOUND SMILES": "O=C(NCCSCc1cccc(C(F)(F)F)c1)Nc1cccc(C(F)(F)F)c1", "RESULT NUMBER": 1.02}
{"COMPOUND SMILES": "O=[N+]([O-])c1ccccc1CS(=O)(=O)c1nc2ccccc2s1", "RESULT NUMBER": 0.773}
{"COMPOUND SMILES": "Cc1c(C)c(C)c(CSC(N)=Nc2ccc(F)cc2)c(C)c1C", "RESULT NUMBER": 0.937}
{"COMPOUND SMILES": "Cc1cccc(Cl)c1/C=N\\NC(N)=S", "RESULT NUMBER": 0.805}
{"COMPOUND SMILES": "O=C(Nc1ccc(N2CCOCC2)cc1)c1ccc(-n2cccn2)cc1", "RESULT NUMBER": 0.957}
{"COMPOUND SMILES": "CCCc1c(C(=O)NNc2cccc(Cl)c2)cnn1-c1ccccc1", "RESULT NUMBER": 0.957}
{"COMPOUND SMILES": "Cc1cc(Cl)ccc1NC(=S)NNC(=S)Nc1ccc(F)cc1", "RESULT NUMBER": 0.925}
{"COMPOUND SMILES": "S=C(N/N=C\\c1ccc(Cl)cc1)N/N=C\\c1ccc(Cl)cc1", "RESULT NUMBER": 0.748}
{"COMPOUND SMILES": "NC(=Nc1ccc(F)cc1)SCc1c(Cl)cccc1Cl", "RESULT NUMBER": 0.954}

Return normalized growth (reported value) for this compound: O=C(NCCSCc1cccc(C(F)(F)F)c1)c1ccc(Cl)cc1
0.916

Return normalized growth (reported value) for this compound: O=C(NCc1ccncc1)c1ccc(-n2cccn2)cc1
0.969
